- Assay Method Text: Selectivity index, ratio of CC50 for human MT4 cells to EC50 for wild type HIV-1 3B infected in human MT4 cells
- Format: toxicity, cell-based
- Particulars: read-out: Ratio CC50/EC50
Can you tell me selectivity ratio for the items I'm about to list?
Lab note: write the figure by itself, no unit.

Which selectivity ratio reading was recorded for the molecule CC(C)Nc1cccnc1N1CCN(C(=O)c2cc3cc(NS(C)(=O)=O)ccc3[nH]2)CC1 ?
379

Which selectivity ratio reading was recorded for the molecule COc1ccc(CSc2nc(C(=O)c3cccc(F)c3)c(C(C)C)c(=O)[nH]2)cc1 ?
472

Which selectivity ratio reading was recorded for the molecule CCc1c(C(=O)c2cccc(Br)c2)nc(SCc2ccc(OC)cc2)[nH]c1=O ?
84

---

- Subject Of Test: UniProt Q72547
- Assay Method Text: Inhibition of recombinant wild type HIV-1 reverse transcriptase p66/p51 expressed in Escherichia coli JM109 using poly(rA)/oligo(dT)16 (1:1.2) as template/primer after 40 mins by spectrofluorometric analysis
Can you tell me IC50 for the items I'm about to list?
Could you give me the number in nM? Just the number is fine.

Which IC50 reading was recorded for the compound CCc1c(C(=O)c2cc(F)cc(F)c2)nc(SCc2ccc(OC)cc2)[nH]c1=O ?
160

Which IC50 reading was recorded for the compound COc1ccc(CSc2nc(C(=O)c3ccccc3F)c(C)c(=O)[nH]2)cc1 ?
2410

Which IC50 reading was recorded for the compound COc1ccc(CSc2nc(C(=O)c3ccccc3F)c(C(C)C)c(=O)[nH]2)cc1 ?
72

Which IC50 reading was recorded for the compound CCc1c(C(=O)c2cccc(F)c2)nc(SCc2ccc(OC)cc2)[nH]c1=O ?
190

Which IC50 reading was recorded for the compound COc1ccc(CSc2nc(C(=O)c3cccc(F)c3)c(C(C)C)c(=O)[nH]2)cc1 ?
40

---

Can you tell me pEC50 for the items I'm about to list?
- System: Human immunodeficiency virus 2
- Assay Method Text: Antiviral activity against HIV-2 ROD infected in human MT4 cells assessed as protection against virus-induced cytopathogenicity after 5 days by MTT assay
- Type: functional, organism-based
- Particulars: Human immunodeficiency virus 2, ISOLATE ROD, MT4, 120 h
pEC50: −log10 of the molar value.

Which pEC50 reading was recorded for the compound COc1ccc(CSc2nc(C(=O)c3ccc(F)cc3)c(C)c(=O)[nH]2)cc1 ?
< 3.49

Which pEC50 reading was recorded for the compound COc1ccc(CSc2nc(C(=O)c3ccc(Br)cc3)c(C(C)C)c(=O)[nH]2)cc1 ?
< 4.37

Which pEC50 reading was recorded for the compound O=c1[nH]cnc2c1ncn2[C@H]1CC[C@@H](CO)O1 [DIDANOSINE] ?
4.81

Which pEC50 reading was recorded for the compound COc1ccc(CSc2nc(C(=O)c3ccc(Br)cc3)c(C)c(=O)[nH]2)cc1 ?
< 3.60

Which pEC50 reading was recorded for the compound CCc1c(C(=O)c2cc(F)cc(F)c2)nc(SCc2ccc(OC)cc2)[nH]c1=O ?
< 3.86

---

- Assay Method Text: Selectivity index, ratio of CC50 for human MT4 cells to EC50 for wild type HIV-1 3B infected in human MT4 cells
- Format: toxicity, cell-based
- Particulars: read-out: Ratio CC50/EC50
Reported Metric: selectivity ratio
Lab note: write the figure by itself, no unit.

Which selectivity ratio reading was recorded for the molecule CCc1c(C(=O)c2cc(F)cc(F)c2)nc(SCc2ccc(OC)cc2)[nH]c1=O ?
541

Which selectivity ratio reading was recorded for the molecule COc1ccc(CSc2nc(C(=O)c3ccccc3F)c(C)c(=O)[nH]2)cc1 ?
124

Which selectivity ratio reading was recorded for the molecule COc1ccc(CSc2nc(C(=O)c3cc(F)cc(F)c3)c(C)c(=O)[nH]2)cc1 ?
32

Which selectivity ratio reading was recorded for the molecule Cc1cn([C@H]2C[C@H](N=[N+]=[N-])[C@@H](CO)O2)c(=O)[nH]c1=O ?
15800

Which selectivity ratio reading was recorded for the molecule COc1ccc(CSc2nc(C(=O)c3cccc(Br)c3)c(C)c(=O)[nH]2)cc1 ?
13

Which selectivity ratio reading was recorded for the molecule CCc1c(C(=O)c2cccc(F)c2)nc(SCc2ccc(OC)cc2)[nH]c1=O ?
436

Which selectivity ratio reading was recorded for the molecule O=c1[nH]cnc2c1ncn2[C@H]1CC[C@@H](CO)O1 ?
12

Which selectivity ratio reading was recorded for the molecule COc1ccc(CSc2nc(C(=O)c3ccccc3F)c(C(C)C)c(=O)[nH]2)cc1 ?
145

---

- Assay Method Text: Selectivity index, ratio of CC50 for human MT4 cells to EC50 for wild type HIV-1 3B infected in human MT4 cells
- Type: toxicity, cell-based
- Particulars: read-out: Ratio CC50/EC50
Reported Metric: selectivity ratio
Lab note: write the figure by itself, no unit.

Which selectivity ratio reading was recorded for the molecule COc1ccc(CSc2nc(C(=O)c3cccc(F)c3)c(C)c(=O)[nH]2)cc1 ?
35

Which selectivity ratio reading was recorded for the molecule COc1ccc(CSc2nc(C(=O)c3ccc(F)cc3)c(C(C)C)c(=O)[nH]2)cc1 ?
21

Which selectivity ratio reading was recorded for the molecule COc1ccc(CSc2nc(C(=O)c3cccc(Cl)c3)c(C)c(=O)[nH]2)cc1 ?
21

Which selectivity ratio reading was recorded for the molecule Nc1ccn([C@H]2CC[C@@H](CO)O2)c(=O)n1 ?
208

---

- Test system: Human immunodeficiency virus 2
- Assay Method Text: Antiviral activity against HIV-2 ROD infected in human MT4 cells assessed as protection against virus-induced cytopathogenicity after 5 days by MTT assay
- Type: functional, organism-based
- Particulars: Human immunodeficiency virus 2, ISOLATE ROD, MT4, 120 h
Can you tell me EC50 for the items I'm about to list?

Which EC50 reading was recorded for the compound Cc1cn([C@H]2C[C@H](N=[N+]=[N-])[C@@H](CO)O2)c(=O)[nH]c1=O ?
0.0064 µM

Which EC50 reading was recorded for the compound COc1ccc(CSc2nc(C(=O)c3cccc(Cl)c3)c(C)c(=O)[nH]2)cc1 ?
> 152 µM

Which EC50 reading was recorded for the compound COc1ccc(CSc2nc(C(=O)c3cccc(F)c3)c(C(C)C)c(=O)[nH]2)cc1 ?
> 132 µM

Which EC50 reading was recorded for the compound COc1ccc(CSc2nc(C(=O)c3ccc(Cl)cc3)c(C)c(=O)[nH]2)cc1 ?
> 151 µM

Values were extracted from ChEMBL document CHEMBL2440034.
